# maps each entry to its Plasma (0.1 μM), activity in % of control
# subject-of-test: Dopamine beta hydroxylase (Homo sapiens, UniProt P09172)
# Construct: 125 μl of plasma; tissue Instituto Português do Sangue Transplantação; host or cells: human plasma from healthy donors
# Sequence (P09172 40-617 limits assumed): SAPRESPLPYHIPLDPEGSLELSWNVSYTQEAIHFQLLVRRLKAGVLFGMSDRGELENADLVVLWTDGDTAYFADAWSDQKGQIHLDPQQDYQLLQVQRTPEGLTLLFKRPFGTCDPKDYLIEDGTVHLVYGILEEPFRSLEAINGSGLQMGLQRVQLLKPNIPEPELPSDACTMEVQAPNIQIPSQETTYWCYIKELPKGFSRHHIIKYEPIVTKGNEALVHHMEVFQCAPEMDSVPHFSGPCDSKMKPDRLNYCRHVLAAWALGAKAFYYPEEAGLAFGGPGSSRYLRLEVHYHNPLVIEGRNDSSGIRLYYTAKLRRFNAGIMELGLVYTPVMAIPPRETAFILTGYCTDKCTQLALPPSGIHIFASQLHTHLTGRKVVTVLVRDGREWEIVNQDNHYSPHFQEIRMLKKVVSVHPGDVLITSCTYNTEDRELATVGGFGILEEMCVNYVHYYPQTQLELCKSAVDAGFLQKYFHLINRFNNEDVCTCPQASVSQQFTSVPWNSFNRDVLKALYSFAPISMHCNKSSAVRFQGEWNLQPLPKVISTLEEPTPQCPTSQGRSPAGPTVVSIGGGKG
# method-summary: Dopamine beta hydroxylase activity in human plasma
# Format: biochemical
# details: inhibitor 0.1 μM
outcome-measure: Plasma (0.1 μM), activity in % of control

{"compound": "Cn1c(CC(=O)NC2CCCC2)c2n(c1=S)C[C@@]1(c3cc(Cl)ccc3F)C[C@@H]21", "readout-value": "28.9 % of control"}
{"compound": "N#CCNC(=O)Cc1[nH]c(=S)n2c1[C@@H]1C[C@]1(c1cc(Br)ccc1F)C2", "readout-value": "14.7 % of control"}
{"compound": "Cn1c(CC(=O)NCC(F)(F)F)c2n(c1=S)C[C@@H](c1c(F)c(F)cc(F)c1F)C2", "readout-value": "17.0 % of control"}
{"compound": "O=C(Cc1[nH]c(=S)n2c1C[C@H](c1c(F)ccc(Br)c1F)C2)N1CCOCC1", "readout-value": "76.1 % of control"}
{"compound": "Cl.Cn1c(CCNC2CCCCC2)c2n(c1=S)C[C@@]1(c3cc(Br)ccc3F)C[C@@H]21", "readout-value": "33.6 % of control"}
{"compound": "Cn1c(CC(=O)N[C@@H]2CCOC2)c2n(c1=S)C[C@H](c1cc(F)cc(F)c1)C2", "readout-value": "52.0 % of control"}
{"compound": "CC(C)NC(=O)Cc1[nH]c(=S)n2c1[C@@H]1C[C@]1(c1cc(Cl)ccc1F)C2", "readout-value": "76.1 % of control"}
{"compound": "CS(=O)(=O)CCNC(=O)Cc1[nH]c(=S)n2c1C[C@H](c1c(F)ccc(Br)c1F)C2", "readout-value": "49.0 % of control"}
{"compound": "Cl.Fc1ccc(F)c([C@H]2Cc3c(CCNCC4CCOCC4)[nH]c(=S)n3C2)c1F", "readout-value": "46.2 % of control"}
{"compound": "O=C(O)Cc1[nH]c(=S)n2c1C[C@@H](c1c(F)ccc(Br)c1F)C2", "readout-value": "30.8 % of control"}
{"compound": "CN(CCO)Cc1[nH]c(=S)n2c1C[C@H](c1c(F)c(F)cc(F)c1F)C2.Cl", "readout-value": "94.8 % of control"}
{"compound": "F.Fc1ccc(Cl)cc1[C@]12C[C@H]1c1c(CCNCc3ccccc3)[nH]c(=S)n1C2", "readout-value": "23.2 % of control"}
{"compound": "CN(C(=O)Cc1c2n(c(=S)n1C)C[C@@H](c1c(F)ccc(F)c1F)C2)C1CCOC1 (some centres unmarked)", "readout-value": "50.0 % of control"}
{"compound": "Cn1c(CC(=O)O)c2n(c1=S)C[C@@]1(c3c(F)ccc(Cl)c3F)C[C@@H]21", "readout-value": "5.6 % of control"}
{"compound": "O=C(Cc1[nH]c(=S)n2c1C[C@@H](c1c(F)ccc(Cl)c1F)C2)N1CCCC1", "readout-value": "52.4 % of control"}
{"compound": "Cl.Cn1c(CC(=O)Nc2ccncc2)c2n(c1=S)C[C@H](c1c(F)ccc(Cl)c1F)C2", "readout-value": "15.5 % of control"}
{"compound": "CCOC(=O)Cc1[nH]c(=S)n2c1C[C@H](c1c(F)cccc1F)C2", "readout-value": "64.5 % of control"}
{"compound": "Cn1c(CC(=O)NCC2CCOCC2)c2n(c1=S)C[C@H](c1c(F)ccc(F)c1F)C2", "readout-value": "34.2 % of control"}
{"compound": "NC(=O)Cc1[nH]c(=S)n2c1C[C@@H](c1c(F)ccc(Br)c1F)C2", "readout-value": "22.4 % of control"}
{"compound": "CN(C(=O)Cc1c2n(c(=S)n1C)C[C@@]1(c3cc(Cl)ccc3F)C[C@@H]21)C1CCOCC1", "readout-value": "8.5 % of control"}
